# Study System: Bcl-2 protein (histag-Bcl-2, UniProtKB P10415) (Homo sapiens (Human), UniProt P10415)
# Sequence (P10415 whole entry): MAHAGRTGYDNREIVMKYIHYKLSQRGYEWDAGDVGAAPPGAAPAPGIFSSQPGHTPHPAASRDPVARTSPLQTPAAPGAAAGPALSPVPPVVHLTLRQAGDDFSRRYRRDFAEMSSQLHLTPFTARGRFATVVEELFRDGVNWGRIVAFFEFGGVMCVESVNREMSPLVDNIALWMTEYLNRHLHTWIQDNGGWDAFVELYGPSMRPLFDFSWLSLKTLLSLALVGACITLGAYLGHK
# Measurement Protocol: Inhibition of Bcl-2 by the fluorescence polarisation technique
# Type: binding
# Assay Context: fluorescence polarisation test; incubation for 2 hours; read-out: IC50 (nM) Bcl-2 FP
I'd be grateful if you could share measured IC50 for these entries.

Item: C[C@@H]1Cc2ccccc2CN1C(=O)c1cc2c(cc1-c1cc(C(=O)N(C)c3ccc(O)cc3)c3n1CCCC3)CCN(C(=O)[C@H](C)c1ccccc1)C2 | IC50: 7 nM

Item: Cc1c(C(=O)N(C)c2ccc(O)cc2)cc(-c2cc3c(cc2C(=O)N2Cc4ccccc4C[C@H]2C)CN(C(=O)NCc2ccccc2)C3)n1C | IC50: 8.4 nM

Item: C[C@@H]1Cc2ccccc2CN1C(=O)c1cc2c(cc1-c1cc(C(=O)N(C)c3ccc(O)cc3)c3n1CCCC3)CCN(C(=O)C1(c3ccccc3)CC1)C2 | IC50: 8.6 nM

Item: Cc1c(C(=O)N(C)c2ccc(O)cc2)cc(-c2cc3c(cc2C(=O)N2Cc4ccccc4C[C@H]2CN2CCOCC2)CN(C(=O)Oc2ccc(C#N)cc2)CC3)n1C | IC50: 2.8 nM

Item: Cc1ccccc1OC(=O)N1CCc2cc(-c3cc(C(=O)N(C)c4ccc(O)cc4)c4n3CCCC4)c(C(=O)N3Cc4ccccc4C[C@H]3CN3CCOCC3)cc2C1 | IC50: 3.9 nM

Item: Cc1c(C(=O)N(C)c2ccc(O)cc2)cc(-c2cc3c(cc2C(=O)N2Cc4ccccc4C[C@H]2C)CN(C(=O)Oc2ccccc2)CC3)n1C | IC50: 2.9 nM
